measured on: PRMT5-MEP50 (Homo sapiens, UniProt O14744)
Sequence (O14744 whole entry): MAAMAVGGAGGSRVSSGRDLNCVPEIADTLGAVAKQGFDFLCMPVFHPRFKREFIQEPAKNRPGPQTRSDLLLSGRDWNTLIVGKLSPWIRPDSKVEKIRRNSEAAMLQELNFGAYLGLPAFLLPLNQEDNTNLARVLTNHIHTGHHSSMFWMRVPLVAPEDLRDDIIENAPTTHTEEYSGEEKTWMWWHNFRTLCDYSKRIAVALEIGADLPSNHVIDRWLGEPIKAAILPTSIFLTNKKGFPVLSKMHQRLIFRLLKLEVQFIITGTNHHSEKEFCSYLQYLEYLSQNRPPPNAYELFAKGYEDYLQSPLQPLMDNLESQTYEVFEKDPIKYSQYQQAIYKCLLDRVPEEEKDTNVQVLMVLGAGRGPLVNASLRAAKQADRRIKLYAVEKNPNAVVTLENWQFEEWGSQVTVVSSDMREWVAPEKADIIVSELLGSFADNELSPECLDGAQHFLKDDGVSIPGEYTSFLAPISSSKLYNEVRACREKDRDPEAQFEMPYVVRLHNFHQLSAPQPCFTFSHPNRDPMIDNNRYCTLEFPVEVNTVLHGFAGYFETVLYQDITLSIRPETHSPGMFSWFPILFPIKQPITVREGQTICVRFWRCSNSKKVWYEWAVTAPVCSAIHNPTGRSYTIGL
Sequence (Q9BQA1 whole entry partner): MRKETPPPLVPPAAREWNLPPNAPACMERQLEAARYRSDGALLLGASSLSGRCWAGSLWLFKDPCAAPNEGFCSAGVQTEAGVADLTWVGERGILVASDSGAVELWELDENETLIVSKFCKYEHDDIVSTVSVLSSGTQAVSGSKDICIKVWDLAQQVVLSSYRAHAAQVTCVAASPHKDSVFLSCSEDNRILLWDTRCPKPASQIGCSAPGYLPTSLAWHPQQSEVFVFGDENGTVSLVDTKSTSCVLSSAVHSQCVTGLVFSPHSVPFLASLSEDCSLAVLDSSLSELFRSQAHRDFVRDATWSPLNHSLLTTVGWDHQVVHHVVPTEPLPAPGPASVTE
assay comment: PRMT5 assay (3H-SAM flashplate)
condition info: Table 4; PRMT5 biochemical assay
parameter measured: IC50

Here's what some known entries look like.
INSERT INTO measurements (compound, parameter_measured, obs_value) VALUES
  ('CN1CC[C@H](NC(=O)[C@H]2O[C@@H](n3cc(-c4ccn(C)n4)c4c(N)ncnc43)[C@H](O)[C@@H]2O)C1 [Compound I-203]', 'IC50', '10 to 100 nM'),
  ('Cn1ccc(-c2cn([C@@H]3O[C@H](C(=O)NCCc4c[nH]cn4)[C@@H](O)[C@H]3O)c3ncnc(N)c23)n1 [Compound I-228]', 'IC50', '100 to 1000 nM');

The compound listed as Cn1ccc(-c2cn([C@@H]3O[C@H](C(=O)NC4CCN(C(=O)OCc5ccccc5)CC4)[C@@H](O)[C@H]3O)c3ncnc(N)c23)n1 [Compound I-225] has a reported IC50 of 100 to 1000 nM

----------
The entries below are paired with their reported pIC50.
measured on: METTL3/METTL14 (Homo sapiens, UniProt Q86U44)
Sequence (Q86U44 whole entry, species assumed): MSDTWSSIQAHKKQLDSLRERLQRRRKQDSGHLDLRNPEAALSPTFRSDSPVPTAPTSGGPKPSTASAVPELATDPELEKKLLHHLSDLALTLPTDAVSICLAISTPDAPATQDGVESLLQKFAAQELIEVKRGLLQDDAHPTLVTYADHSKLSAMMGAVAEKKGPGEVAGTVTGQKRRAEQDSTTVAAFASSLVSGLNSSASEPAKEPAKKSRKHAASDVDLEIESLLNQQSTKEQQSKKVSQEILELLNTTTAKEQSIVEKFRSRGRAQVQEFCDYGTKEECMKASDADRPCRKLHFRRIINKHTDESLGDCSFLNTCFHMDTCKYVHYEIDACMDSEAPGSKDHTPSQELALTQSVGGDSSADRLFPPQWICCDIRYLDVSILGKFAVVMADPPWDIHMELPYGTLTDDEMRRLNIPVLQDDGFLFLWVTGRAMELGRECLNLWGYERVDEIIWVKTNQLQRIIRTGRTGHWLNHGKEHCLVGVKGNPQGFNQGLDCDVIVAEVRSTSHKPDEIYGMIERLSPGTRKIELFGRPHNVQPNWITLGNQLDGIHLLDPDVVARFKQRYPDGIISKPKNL
Sequence (Q9HCE5 whole entry partner, species assumed): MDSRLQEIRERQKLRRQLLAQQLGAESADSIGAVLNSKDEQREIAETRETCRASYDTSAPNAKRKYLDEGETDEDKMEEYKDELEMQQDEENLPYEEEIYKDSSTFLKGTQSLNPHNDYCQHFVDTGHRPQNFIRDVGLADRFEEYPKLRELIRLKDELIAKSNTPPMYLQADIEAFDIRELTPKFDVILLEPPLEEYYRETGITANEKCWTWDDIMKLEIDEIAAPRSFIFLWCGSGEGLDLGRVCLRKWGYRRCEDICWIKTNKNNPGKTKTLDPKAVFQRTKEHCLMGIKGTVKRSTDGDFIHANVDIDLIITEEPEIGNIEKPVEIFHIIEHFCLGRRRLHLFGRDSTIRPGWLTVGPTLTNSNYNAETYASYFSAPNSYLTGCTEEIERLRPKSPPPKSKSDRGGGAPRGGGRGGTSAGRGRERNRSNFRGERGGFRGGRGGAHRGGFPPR
assay comment: METTL3-14 standard enzyme assay (3H-SAM flashplate)
condition info: Table 4; METTL3 biochemical assay
pIC50: −log10 of the molar value.

Observe how each entry below is paired with its result.
INSERT INTO assay_data (structure, measured_on, parameter_measured, obs_value) VALUES
  ('Cn1ccc(-c2cn([C@@H]3O[C@H](C(=O)NCCc4ccc(C(F)(F)F)cc4)[C@@H](O)[C@H]3O)c3ncnc(N)c23)n1', 'METTL3/METTL14 (Homo sapiens, UniProt Q86U44)', 'pIC50', '6.00 to 7.00'),
  ('CC(=O)N1CCC(CNC(=O)[C@H]2O[C@@H](n3cc(-c4ccn(C)n4)c4c(N)ncnc43)[C@H](O)[C@@H]2O)CC1', 'METTL3/METTL14 (Homo sapiens, UniProt Q86U44)', 'pIC50', '≤ 6.00');

Continue with the compound presented below.
Lab note: C[C@H]1C[C@H](NC(=O)[C@H]2O[C@@H](n3cc(-c4ccn(C)n4)c4c(N)ncnc43)[C@H](O)[C@@H]2O)CCN1C gave pIC50 of 6.00 to 7.00

----------
measured on: METTL3/METTL14 (Homo sapiens, UniProt Q86U44)
assay comment: METTL3-14 standard enzyme assay (3H-SAM flashplate)
condition info: Table 4; METTL3 biochemical assay
pIC50: −log10 of the molar value.
Reported pIC50 values for the following compounds.

Here are 4 compounds together with their reported answers.
INSERT INTO results (compound, obs_value) VALUES
  ('CC(CCc1ccccc1)NC(=O)[C@H]1O[C@@H](n2cc(-c3ccn(C)n3)c3c(N)ncnc32)[C@H](O)[C@@H]1O (stereo partly drawn)', '6.00 to 7.00'),
  ('CCc1cccc(NC(=O)[C@H]2O[C@@H](n3cc(-c4ccn(C)n4)c4c(N)ncnc43)[C@H](O)[C@@H]2O)n1', '≤ 6.00'),
  ('CN1CCN(c2ccc(NC(=O)[C@H]3O[C@@H](n4cc(-c5ccn(C)n5)c5c(N)ncnc54)[C@H](O)[C@@H]3O)nc2)CC1', '6.00 to 7.00'),
  ('Cn1ccc(-c2cn([C@@H]3O[C@H](C(=O)NCC[C@H](N)C(=O)O)[C@@H](O)[C@H]3O)c3ncnc(N)c23)n1', '6.00 to 7.00');

For Cn1ccc(-c2cn([C@@H]3O[C@H](C(=O)Nc4nccc5ccccc45)[C@@H](O)[C@H]3O)c3ncnc(N)c23)n1 the compound record lists pIC50 as ≤ 6.00

GET /value?item= Cn1ccc(-c2cn([C@@H]3O[C@H](C(=O)N[C@@H]4CCCNC4)[C@@H](O)[C@H]3O)c3ncnc(N)c23)n1 &field=pIC50 returns 6.00 to 7.00
